- Test system: IL-2 secretion by human effector memory T cells (TEM)
- Assay remarks: Effector memory T cells IL-2 release assay
- Format: cell-based
- Condition info: T-cell; human CD4+ effector memory T cells, CD3/CD28 bead stimulation, 24 h; read-out: CD4TC IL2 IC50

| Compound | IC50 [nM] |
| --- | --- |
| CC(=O)N1CCC[C@H](C(=O)N(C)[C@@H](c2ccc(N3CCCc4c3cnc3cc(Cl)nn43)cc2)C(F)(F)F)C1 (relative stereo) | 267 |
| CN1C(=O)CC[C@@H]1C(=O)N(C)[C@@H](c1ccc(N2CCCc3c2cnc2cc(Cl)nn32)cc1)C(F)(F)F | 94 |
| CN(C(=O)[C@H]1C[C@H](S(C)(=O)=O)C1)[C@@H](c1ccc(N2CCCc3c2cnc2cc(Cl)nn32)cc1)C(F)(F)F | 140 |

* * *

- Test target: Recombinant human MALT-1 (amino acids 340-824) (Homo sapiens (Human))
- Sequence (Q9UDY8 340-824): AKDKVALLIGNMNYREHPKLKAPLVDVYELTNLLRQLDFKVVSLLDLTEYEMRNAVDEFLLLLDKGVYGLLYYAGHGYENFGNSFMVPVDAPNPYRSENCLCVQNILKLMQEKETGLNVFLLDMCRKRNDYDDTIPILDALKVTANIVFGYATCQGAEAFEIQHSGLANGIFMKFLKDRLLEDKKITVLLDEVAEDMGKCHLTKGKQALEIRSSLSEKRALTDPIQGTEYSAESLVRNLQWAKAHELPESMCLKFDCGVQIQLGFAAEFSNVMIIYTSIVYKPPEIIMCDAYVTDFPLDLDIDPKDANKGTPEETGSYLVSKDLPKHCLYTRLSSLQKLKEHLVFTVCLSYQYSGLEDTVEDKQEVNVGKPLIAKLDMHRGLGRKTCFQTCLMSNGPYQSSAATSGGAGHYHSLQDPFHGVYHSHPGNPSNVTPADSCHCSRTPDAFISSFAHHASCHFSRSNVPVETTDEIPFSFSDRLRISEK
- Assay remarks: MALT-1 inhibition assay (fluorogenic substrate Ac-LRSR-Rh110-DP)
- Condition info: recombinant human MALT-1, substrate Ac-LRSR-Rh110-DP
pIC50: −log10 of the molar value.
List of pIC50 values.

| Compound | pIC50 |
| --- | --- |
| CN(C(=O)[C@H]1C[C@H]([S@@+](C)(=N)[O-])C1)[C@@H](c1ccc(N2CCCc3c2cnc2cc(Cl)nn32)cc1)C(F)(F)F | 7.28 |
| CN(C(=O)C1CCS(=O)(=O)CC1)[C@@H](c1ccc(N2CC(C)(C)c3c2cnc2cc(Cl)nn32)cc1)C(F)(F)F | 7.60 |
| CN(C(=O)[C@H]1C[C@@H](S(C)(=O)=O)C1)[C@@H](c1ccc(N2CCCc3c2cnc2cc(Cl)nn32)cc1)C(F)(F)F | 7.21 |
| O=C(Nc1cnc(-n2nccn2)c(Cl)c1)c1cnn(-c2cccc3ncccc23)c1NCCCCl | 6.33 |
| COC[C@]1(C)CCN(c2ccc([C@H](N(C)C(=O)[C@H]3CC[S@](=N)(=O)CC3)C(F)(F)F)cc2)c2cnc3cc(Cl)nn3c21 (relative stereo) | 7.00 |
| CN(C(=O)C1CCS(=O)(=O)CC1)[C@@H](c1ccc(N2CC(C)(C)Cc3c2cnc2cc(Cl)nn32)cc1)C(F)(F)F | 7.15 |
| CN(C(=O)C1CCS(=O)(=O)CC1)[C@@H](c1ccc(N2CCCc3c2cnc2cc(F)nn32)cc1)C(F)(F)F | 7.08 |
| COc1ccc2ncc3c(c2n1)C(O)CCN3c1ccc([C@H](N(C)C(=O)C2CCS(=O)(=O)CC2)C(F)(F)F)cc1 (stereo partly shown) | 6.36 |
| CN(C(=O)[C@H]1CC[S@](=N)(=O)CC1)[C@@H](c1ccc(N2CCC3(CC3)c3c2cnc2cc(F)nn32)cc1)C(F)(F)F (relative stereo) | 7.64 |
| CN(C(=O)[C@H]1CC[S@+]([O-])CC1)[C@@H](c1ccc(N2CCC3(CC3)c3c2cnc2cc(F)nn32)cc1)C(F)(F)F (relative stereo) | 7.48 |
| CN(C(=O)CC1CCNC1)[C@@H](c1ccc(N2CCCc3c2cnc2cc(Cl)nn32)cc1)C(F)(F)F (stereo partly shown) | 6.69 |
| C[C@H]1CCc2c(cnc3cc(Cl)nn23)N1c1ccc([C@H](N(C)C(=O)[C@H]2CC[S@](=N)(=O)CC2)C(F)(F)F)cc1 (relative stereo) | 6.61 |
| CN(C(=O)[C@H]1CC[S@@+]([O-])CC1)[C@@H](c1ccc(N2CCC(C)(C)c3c2cnc2cc(Cl)nn32)cc1)C(F)(F)F (relative stereo) | 7.14 |
